Source of measurements: patent US8119675B2

Measured Target: UniProtKB P31639
Sequence (P31639 whole entry): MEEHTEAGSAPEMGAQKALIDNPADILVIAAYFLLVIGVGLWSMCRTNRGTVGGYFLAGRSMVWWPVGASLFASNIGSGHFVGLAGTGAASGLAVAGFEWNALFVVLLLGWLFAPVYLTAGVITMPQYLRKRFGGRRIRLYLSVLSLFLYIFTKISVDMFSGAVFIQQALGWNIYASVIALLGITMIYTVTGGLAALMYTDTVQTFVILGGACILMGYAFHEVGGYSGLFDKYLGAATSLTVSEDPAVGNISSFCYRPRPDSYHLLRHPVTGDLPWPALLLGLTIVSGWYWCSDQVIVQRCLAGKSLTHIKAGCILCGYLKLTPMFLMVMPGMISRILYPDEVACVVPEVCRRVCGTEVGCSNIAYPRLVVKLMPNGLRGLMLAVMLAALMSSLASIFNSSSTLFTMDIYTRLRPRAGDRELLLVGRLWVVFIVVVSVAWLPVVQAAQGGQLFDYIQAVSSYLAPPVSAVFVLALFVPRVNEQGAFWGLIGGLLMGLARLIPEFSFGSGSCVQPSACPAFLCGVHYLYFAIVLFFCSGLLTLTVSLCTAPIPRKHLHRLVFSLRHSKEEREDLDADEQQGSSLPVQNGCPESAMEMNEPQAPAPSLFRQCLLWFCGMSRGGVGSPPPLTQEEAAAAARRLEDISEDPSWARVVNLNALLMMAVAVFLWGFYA
Test Protocol: 14C-AMG uptake in BHK cells transfected with SGLT2 (96-well cell-based assay)
Experimental Setup: 2 mM AMG, 37° C., 90 min
Metric: IC50

Query: Specify reported IC50 for the compound shown: NC(=O)COc1ccccc1-c1nc2ccccc2n1Cc1c(F)cccc1F [Compound A9]
Response: 1000 to 10000 nM

Query: Specify reported IC50 for the compound shown: Cc1cccc(C)c1Cn1c(-c2ccc(F)cc2OCC(N)=O)nc2ccccc21 [Compound A17]
Response: 10 to 1000 nM

Query: Specify reported IC50 for the compound shown: Cc1cccc(C)c1Cn1c(-c2ccccc2OCC(N)=O)nc2cccc(Br)c21 [Compound A23]
Response: > 10000 nM

Query: Specify reported IC50 for the compound shown: COc1cccc(OCC(N)=O)c1-c1nc2ccccc2n1Cc1c(C)cccc1C [Compound A15]
Response: 10 to 1000 nM

Query: Specify reported IC50 for the compound shown: Cc1cccc(C)c1Cn1c(-c2ccccc2OCC(N)=O)nc2ccc(F)cc21 [Compound A4]
Response: 10 to 1000 nM

Query: Specify reported IC50 for the compound shown: Cc1cccc(C)c1Cn1c(-c2cccc(F)c2OCC(N)=O)nc2ccccc21 [Compound A10]
Response: 10 to 1000 nM

Query: Specify reported IC50 for the compound shown: NC(=O)COc1ccccc1-c1nc2cccc(Cl)c2n1Cc1c(Cl)cccc1Cl [Compound A21]
Response: 1000 to 10000 nM

Query: Specify reported IC50 for the compound shown: NC(=O)COc1ccccc1-c1nc2ccccc2n1Cc1c(F)cccc1Cl [Compound A20]
Response: 1000 to 10000 nM

Query: Specify reported IC50 for the compound shown: COc1cc(C)c(-c2nc3cc(F)c(F)cc3n2Cc2c(C)cccc2C)c(OCC(N)=O)c1 [Compound A28]
Response: 1000 to 10000 nM

Query: Specify reported IC50 for the compound shown: Cc1cccc(C)c1Cn1c(-c2cccc(C)c2OCC(N)=O)nc2ccccc21 [Compound A12]
Response: 1000 to 10000 nM
